# target.desc: Wild type TGMV AL1 fused to the Gal4 DNA binding domain (pNSB736) (tomato golden mosaic virus (TGMV))
observed.property: oligomer. (oligomerization activity relative to wild type)

INSERT INTO results (binder, value_observed) VALUES
  ('AL1 Q-HN165 (Ala8) fused to the Gal4 activation domain (pNSB761) (other) MPSHPKRFQINAKNYFLTYPQCSLSKEESLSQLQALNTPINKKFIKICRELHEDGQPHLHVLIQFEGKYCCQNQRFFDLVSPTRSAHFHPNIQRAKSSSDVKTYIDKDGDTLVWGEFQVDGRSARGGCQTSNDAAAEALNASSKEEALQIIREKIPEKYLFAFAALNSNLDRIFDKTPEPWLPPFHVSSFTNVPDEMRQWAENYFGKSSAARPERPISIIIEGDSRTGKTMWARSLGPHNYLSGHLDLNSRVYSNKVEYNVIDDVTPQYLKLKHWKELIGAQRDWQTNCKYGKPVQIKGGIPSIVLCNPGEGASYKVFLDKEENTPLKNWTFHNAKFVFLNSPLYQSSTQSS', '102 relative to wild type (100)'),
  ('AL1 E--N140 + KEE146 (Ala4+5) fused to the Gal4 activation domain (pNSB757) (other) MPSHPKRFQINAKNYFLTYPQCSLSKEESLSQLQALNTPINKKFIKICRELHEDGQPHLHVLIQFEGKYCCQNQRFFDLVSPTRSAHFHPNIQRAKSSSDVKTYIDKDGDTLVWGEFQVDGRSARGGCQTSNDAAAAALAASSAAAALQIIREKIPEKYLFQFHNLNSNLDRIFDKTPEPWLPPFHVSSFTNVPDEMRQWAENYFGKSSAARPERPISIIIEGDSRTGKTMWARSLGPHNYLSGHLDLNSRVYSNKVEYNVIDDVTPQYLKLKHWKELIGAQRDWQTNCKYGKPVQIKGGIPSIVLCNPGEGASYKVFLDKEENTPLKNWTFHNAKFVFLNSPLYQSSTQSS', '88 relative to wild type (100)'),
  ('AL1 FQ118 (Ala13) fused to the Gal4 activation domain (pNSB872) (other) MPSHPKRFQINAKNYFLTYPQCSLSKEESLSQLQALNTPINKKFIKICRELHEDGQPHLHVLIQFEGKYCCQNQRFFDLVSPTRSAHFHPNIQRAKSSSDVKTYIDKDGDTLVWGEAAVDGRSARGGCQTSNDAAAEALNASSKEEALQIIREKIPEKYLFQFHNLNSNLDRIFDKTPEPWLPPFHVSSFTNVPDEMRQWAENYFGKSSAARPERPISIIIEGDSRTGKTMWARSLGPHNYLSGHLDLNSRVYSNKVEYNVIDDVTPQYLKLKHWKELIGAQRDWQTNCKYGKPVQIKGGIPSIVLCNPGEGASYKVFLDKEENTPLKNWTFHNAKFVFLNSPLYQSSTQSS', '95 relative to wild type (100)'),
  ('AL1 REK154 (Ala6) fused to the Gal4 activation domain (pNSB759) (other) MPSHPKRFQINAKNYFLTYPQCSLSKEESLSQLQALNTPINKKFIKICRELHEDGQPHLHVLIQFEGKYCCQNQRFFDLVSPTRSAHFHPNIQRAKSSSDVKTYIDKDGDTLVWGEFQVDGRSARGGCQTSNDAAAEALNASSKEEALQIIAAAIPEKYLFQFHNLNSNLDRIFDKTPEPWLPPFHVSSFTNVPDEMRQWAENYFGKSSAARPERPISIIIEGDSRTGKTMWARSLGPHNYLSGHLDLNSRVYSNKVEYNVIDDVTPQYLKLKHWKELIGAQRDWQTNCKYGKPVQIKGGIPSIVLCNPGEGASYKVFLDKEENTPLKNWTFHNAKFVFLNSPLYQSSTQSS', '57 relative to wild type (100)'),
  ('AL1 D120 (Ala14) fused to the Gal4 activation domain (pNSB871) (other) MPSHPKRFQINAKNYFLTYPQCSLSKEESLSQLQALNTPINKKFIKICRELHEDGQPHLHVLIQFEGKYCCQNQRFFDLVSPTRSAHFHPNIQRAKSSSDVKTYIDKDGDTLVWGEFQVAGRSARGGCQTSNDAAAEALNASSKEEALQIIREKIPEKYLFQFHNLNSNLDRIFDKTPEPWLPPFHVSSFTNVPDEMRQWAENYFGKSSAARPERPISIIIEGDSRTGKTMWARSLGPHNYLSGHLDLNSRVYSNKVEYNVIDDVTPQYLKLKHWKELIGAQRDWQTNCKYGKPVQIKGGIPSIVLCNPGEGASYKVFLDKEENTPLKNWTFHNAKFVFLNSPLYQSSTQSS', '67 relative to wild type (100)');
